- ASSAY: qHTS Assay for Lipid Storage Modulators (AID 1519)
- ASSAY_SETUP: Drosophila S3 cells, BODIPY lipid droplet/cell ratio, laser cytometry; measured here: lipid channel max response; cells loaded with oleic acid
Results filed as inconclusive are left out.
MEASURED_ATTRIBUTE: max response (%)
Record the value in %, omitting the unit from your answer.

Example entries begin here.
Per the record, `Cc1nc2cnc(Oc3ccccc3)nc2n(C)c1=O` has max response of 19.9

Per the record, `c1ccc(CNc2cc(-c3cccnc3)ncn2)cc1` has max response of 21.7

Per the record, `COc1ccccc1CNc1ncncc1-c1cccc(C#N)c1` has max response of 8.29

Per the record, `Cc1nc2cnc(N3CCNCC3)nc2n(Cc2ccc(F)cc2)c1=O` has max response of 19.5

***
Per the record, `Clc1ccccc1-c1ccc2ncnc(N3CCNCC3)c2c1` has max response of 32.3

Per the record, `COc1ccc(-n2c(=O)c(-c3cccs3)nc3cnc(OC)nc32)cc1` has max response of 13.8

Per the record, `COc1ccc(-c2nc3cnc(N4CCN(C)CC4)nc3n(Cc3ccc(F)cc3)c2=O)cc1` has max response of 10.9

Per the record, `CC(=O)NCCNc1cc(-c2ccccc2CN(C)C)ncn1` has max response of 8.32

Per the record, `CC(=O)NCCNc1nc(-c2ccccc2C(F)(F)F)nc2ccccc12` has max response of 23

Per the record, `c1ccc(Nc2cc(-c3ccoc3)ncn2)cc1` has max response of 22

Per the record, `COc1ccc(-c2nc3cnc(N4CCNCC4)nc3n(Cc3cccs3)c2=O)cc1` has max response of 6.52

---

- ASSAY: qHTS for Activators of p53 Stress Response Pathway screened against the NCATS CANVASS Library (AID 1347388); further: 0% is about no effect
- ASSAY_SETUP: p53RE-bla HCT-116, beta-lactamase reporter, 16 h; series mostly up to 46.1 µM
Inconclusive results are not listed. Activity calls are given as the source filed them. Calls come from the whole dose curve; as a rule, active = well fitted activation curve with a large enough effect; inconclusive = small, poorly fitted or top-dose-only effect; inactive = flat fitted curve, though single readings scatter. Bridge positions count the residues as written; N and C are the ends. Square brackets hold non-standard residues; d marks the D form. Side chains are listed from the residue outwards. Peptide text beside a SMILES is read from it. * marks the point of attachment. Phg(4-OMe) = COc1ccc([C@H](N)C(=O)O)cc1; d(aIle) = CC[C@H](C)[C@@H](N)C(=O)O; d(aThr) = C[C@@H](O)[C@@H](N)C(=O)O; NMeF = CN[C@@H](Cc1ccccc1)C(=O)O; Isobutyryl = CC(C)C(=O)*
Could you please pick one outcome from this set? true (1) (active), false (0) (inactive)

Exercise: Per the assay record, what outcome was assigned to C=C1C[C@]23C=CC(=O)[C@@](C)(CCCC(C)C(=O)N[C@@H](CO)C(=O)O)[C@@H]2C[C@@H]1CC3 (some centres undefined) ?
Key: false (0)

Exercise: Per the assay record, what outcome was assigned to `C[C@@H]1CC[C@]2(C(=O)O)CC[C@]3(C)C(=C2[C@H]1C)CC[C@@H]1[C@@]2(C)CC[C@H](O)C(C)(C)[C@@H]2CC[C@]13C` ?
Key: false (0)

Exercise: Per the assay record, what outcome was assigned to CC[C@H](C)[C@H]1NC(=O)[C@@H](NC(=O)C(C)C)[C@@H](C)OC(=O)[C@H](COC(=O)CNC(C)=O)NC(=O)[C@@H]([C@@H](C)O)NC(=O)[C@H](Cc2ccccc2)N(C)C(=O)[C@H](c2ccc(OC)cc2)NC1=O (Isobutyryl-T[d(aIle)][Phg(4-OMe)][NMeF][d(aThr)]S([Gly-Ac]); ester 1-C) ?
Key: false (0)

Exercise: Per the assay record, what outcome was assigned to `COc1cc2ccc(=O)oc2c(O)c1O[C@@H]1O[C@H](CO)[C@@H](O)[C@H](O)[C@H]1O` ?
Key: false (0)

Exercise: Per the assay record, what outcome was assigned to `O=c1cc(-c2ccc(O)c(O)c2)oc2cc(O[C@@H]3O[C@H](CO)[C@@H](O)[C@H](O)[C@H]3O)cc(O)c12` ?
Key: false (0)

***
Exercise: Per the assay record, what outcome was assigned to CC(=O)N[C@H](C)c1nc(/C=C/C=C/C(=O)CC2CC(=O)CC[C@]2(C)O)cs1 (some centres undefined) ?
Key: false (0)

Exercise: Per the assay record, what outcome was assigned to O=C1CC(c2ccc(O)cc2)Oc2cc(O)cc(O)c21 (centres undefined) ?
Key: false (0)

Exercise: Per the assay record, what outcome was assigned to `CC[C@H]1[C@H](C)[C@H](c2cc(OC)c(OC)cc2OC)[C@@H](C)[C@H](c2cc(OC)c(OC)cc2OC)[C@@]12C=C(OC)C(=O)C=C2OC` ?
Key: false (0)

Exercise: Per the assay record, what outcome was assigned to `O[C@H]1C=C2[C@H]3CN(Cc4cc5c(cc43)OCO5)[C@H]2C[C@@H]1O` ?
Key: false (0)

Exercise: Per the assay record, what outcome was assigned to `CC(C)[C@@H]1CC(=O)c2coc3c2[C@H]1C[C@@H](C)C3=O` ?
Key: false (0)

Exercise: Per the assay record, what outcome was assigned to `CC(C)[C@]12CC[C@@]3(C)[C@H](C)CC[C@H](O)[C@@]3(CC1)c1cc3c(cc12)[nH]c1ccccc13` ?
Key: false (0)

---

- ASSAY: Stat Signaling Pathway (AID 446);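 further: ME-180 cervical cancer cells given 40 pM IL-6 alongside compound; SIE-controlled beta-lactamase reporter measured as 460/530 nm FRET emission ratio; on the % scale 0 is the no-effect control and ±100 the full control effect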
- ASSAY_SETUP: ME-180 (cervical carcinoma) SIE beta-lactamase reporter, IL-6 stimulated, 5 h; at 7.69 µM (top of the series) unless noted
Inconclusive results are not listed.
The entries below come with measured activity, negative = inhibition values attached.
Record the value in %, omitting the unit from your answer.

Example entries begin here.
Per the record, `c1ccc(-c2ccc(N3CC4(CCNCC4)C3)cc2)cc1` has activity, negative = inhibition of 4.95

Per the record, `COC(=O)N1CCC2(CCN(Cc3nccs3)CC2)CC1` has activity, negative = inhibition of 0.339

Per the record, `CNc1nc(-c2ccccc2Cl)nc2ccccc12` has activity, negative = inhibition of -8.45

Per the record, `O=c1cnc2cnc(Nc3ccccc3)nc2n1Cc1ccc(F)cc1` has activity, negative = inhibition of -3.92

Per the record, `COc1ccc(NC(=O)N2CC3(CCN(C(=O)c4c(C)noc4C)CC3)C2)cc1` has activity, negative = inhibition of -8.69

Per the record, `Cc1noc(C)c1-c1cc(NCCN2CCOCC2)ncn1` has activity, negative = inhibition of 0.606

Per the record, `CN1CC[C@@]2(CCCN(C(=O)c3cccc(F)c3)C2)C1` has activity, negative = inhibition of -8.35

Per the record, `CCNc1ncc2nc(C)c(=O)n(C)c2n1` has activity, negative = inhibition of -8.23

Per the record, `COCCn1c(=O)cnc2cnc(OC)nc21` has activity, negative = inhibition of -10.3

Per the record, `CN1CCN(c2ncncc2-c2ccccc2C(F)(F)F)CC1` has activity, negative = inhibition of 0.819

***
Per the record, `c1ccc2c(NC3CCNCC3)nc(-c3ccoc3)nc2c1` has activity, negative = inhibition of 7

Per the record, `COc1ncc2nc(-c3cccc(C#N)c3)c(=O)n(CCC#N)c2n1` has activity, negative = inhibition of -3.36

---

- TARGET_SYSTEM: Ubiquitin carboxyl-terminal hydrolase 2 (Homo sapiens) (UniProt O75604)
- Sequence (O75604 whole entry, looked up): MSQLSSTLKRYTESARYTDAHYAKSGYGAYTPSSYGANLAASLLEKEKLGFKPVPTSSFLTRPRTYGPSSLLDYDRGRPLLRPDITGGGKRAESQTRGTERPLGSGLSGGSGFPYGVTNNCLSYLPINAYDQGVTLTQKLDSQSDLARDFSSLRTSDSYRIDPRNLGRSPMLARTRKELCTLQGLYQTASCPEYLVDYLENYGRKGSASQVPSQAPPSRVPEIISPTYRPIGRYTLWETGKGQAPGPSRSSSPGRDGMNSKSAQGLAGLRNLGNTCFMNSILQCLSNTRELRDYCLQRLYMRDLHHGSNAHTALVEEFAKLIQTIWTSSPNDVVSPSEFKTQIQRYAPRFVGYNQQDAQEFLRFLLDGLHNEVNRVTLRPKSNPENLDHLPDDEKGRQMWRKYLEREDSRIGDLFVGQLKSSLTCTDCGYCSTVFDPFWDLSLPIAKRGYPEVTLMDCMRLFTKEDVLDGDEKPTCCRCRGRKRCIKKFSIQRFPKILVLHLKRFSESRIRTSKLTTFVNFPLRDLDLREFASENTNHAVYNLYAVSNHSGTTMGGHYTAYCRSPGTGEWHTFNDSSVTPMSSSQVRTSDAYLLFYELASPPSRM
- ASSAY: qHTS for Inhibitors of Ubiquitin-specific Protease USP2a Using CHOP2 as the Reporter: K484 Substrate (AID 652173);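 further: cleavage of internally quenched K48 di-ubiquitin substrate measured as rising fluorescence over time; nearly all actives have a fitted effect of over 70% in size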
- ASSAY_SETUP: USP2 cleavage of DiUb K48 IQF substrate, fluorescence; series mostly up to 57.5 µM
Inconclusive results are not listed. Activity calls are given as the source filed them. Calls follow the shape of the dose curve; as a rule, active = well fitted inhibition curve with a large enough effect; inconclusive = small, poorly fitted or top-dose-only effect; inactive = flat fitted curve, though single readings scatter.
Could you please pick one outcome from this set? Y = active, N = inactive

Exercise: Per the assay record, what outcome was assigned to `O=C(Nc1nc(-c2ccccc2)cs1)c1ccncc1NS(=O)(=O)c1ccc(N2CCCC2=O)cc1` ?
Key: Y

Exercise: Per the assay record, what outcome was assigned to `Cc1ccc(S(=O)(=O)Nc2cc(C)ccc2C(=O)Nc2nc(-c3ccccc3)cs2)cc1` ?
Key: Y

Exercise: Per the assay record, what outcome was assigned to `CCCCCN1CCC(C(=O)Nc2ccc([S+](=O)([O-])Nc3nccs3)cc2)CC1` ?
Key: N

Exercise: Per the assay record, what outcome was assigned to `Cc1ccc(S(=O)(=O)Nc2ccccc2C(=O)Nc2ncc(-c3ccccc3)s2)cc1` ?
Key: Y

***
Exercise: Per the assay record, what outcome was assigned to `Cc1ccc(-c2cc(C(=O)O)c3cccc(C)c3n2)cc1C` ?
Key: N

Exercise: Per the assay record, what outcome was assigned to `Cc1ccc(S(=O)(=O)Nc2cc(C(=O)Nc3nc(-c4ccccc4)cs3)ccc2Cl)cc1` ?
Key: Y

Exercise: Per the assay record, what outcome was assigned to `Cc1ccc(NS(=O)(=O)c2ccc(C(=O)Nc3nc(-c4ccccc4)cs3)cc2)cc1` ?
Key: Y

Exercise: Per the assay record, what outcome was assigned to `COc1cccc(NS(=O)(=O)c2ccc(C)cc2)c1C(=O)Nc1nc(-c2ccccc2)cs1` ?
Key: Y

Exercise: Per the assay record, what outcome was assigned to `Cc1ccc(-c2cc(C(=O)Nc3ccc(-c4nn[nH]n4)cc3)c3ccccc3n2)cc1C` ?
Key: Y

Exercise: Per the assay record, what outcome was assigned to `CCCCc1ccc(C(=O)Nc2ccc(S(=O)(=O)Nc3nccs3)cc2)cc1` ?
Key: Y

Exercise: Per the assay record, what outcome was assigned to `COc1ccc(-c2csc(NC(=O)c3ccccc3NS(=O)(=O)c3ccc(C)cc3)n2)cc1` ?
Key: Y

Exercise: Per the assay record, what outcome was assigned to `NS(=O)(=O)c1ccc(Nc2nc(-c3ccccc3)cs2)cc1` ?
Key: Y

Exercise: Per the assay record, what outcome was assigned to `CC(C)(C)OC(=O)N1CCC(C(=O)Nc2ccc([S+](=O)([O-])Nc3nccs3)cc2)CC1` ?
Key: N

Exercise: Per the assay record, what outcome was assigned to `O=C(Nc1ccc([S+](=O)([O-])Nc2nccs2)cc1)C1CCNCC1` ?
Key: N
